The measured values listed here are drawn from ChEMBL document CHEMBL1146840.

# Relative IC50 per record follows
test name: Free radical scavenging activity of DPPH relative to resveratrol was determined

molecule smiles: Oc1cc(O)cc(/C=C/c2ccc(O)c(I)c2)c1
Relative IC50: 1.68

molecule smiles: OC[C@H]1O[C@@H](Oc2cc(O)cc(/C=C/c3ccc(O)cc3)c2)[C@H](O)[C@@H](O)[C@@H]1O
Relative IC50: 0.37

molecule smiles: OC[C@H]1O[C@@H](Oc2cc(O)cc(/C=C/c3ccc(O)c(O)c3)c2)[C@H](O)[C@@H](O)[C@@H]1O
Relative IC50: 2.42

molecule smiles: COc1cc(/C=C/c2ccc(O)c(CCF)c2)cc(OC)c1
Relative IC50: 1.77

molecule smiles: Oc1cc(O)c2c(c1)O[C@H](c1ccc(O)c(O)c1)[C@@H](O)C2
Relative IC50: 3.66
